# Measured On: human insulin receptors (hIR) (Homo sapiens, UniProt P06213)
# Construct: partially purified from placental extracts or from cell line IM-9; from tissue; host or cells: human placental extracts or cell line IM-9
# Sequence (P06213 763-1382 limits assumed): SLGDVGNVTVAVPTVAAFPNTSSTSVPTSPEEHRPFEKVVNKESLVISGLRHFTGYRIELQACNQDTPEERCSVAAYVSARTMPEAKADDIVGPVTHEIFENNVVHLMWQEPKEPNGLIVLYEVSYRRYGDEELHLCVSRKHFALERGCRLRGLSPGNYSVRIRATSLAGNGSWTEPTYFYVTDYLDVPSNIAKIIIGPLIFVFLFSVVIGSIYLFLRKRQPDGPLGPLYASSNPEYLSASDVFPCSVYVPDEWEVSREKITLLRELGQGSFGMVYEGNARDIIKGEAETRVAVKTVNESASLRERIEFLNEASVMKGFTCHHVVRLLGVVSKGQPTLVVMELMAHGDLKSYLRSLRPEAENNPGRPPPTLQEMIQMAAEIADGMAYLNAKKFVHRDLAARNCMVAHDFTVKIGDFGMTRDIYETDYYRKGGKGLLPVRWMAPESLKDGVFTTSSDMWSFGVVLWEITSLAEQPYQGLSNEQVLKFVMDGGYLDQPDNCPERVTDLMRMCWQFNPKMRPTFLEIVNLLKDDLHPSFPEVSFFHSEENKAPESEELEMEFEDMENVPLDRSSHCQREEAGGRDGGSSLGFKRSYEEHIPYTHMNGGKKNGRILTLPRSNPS
# Sequence (P06213 28-758 partner limits assumed): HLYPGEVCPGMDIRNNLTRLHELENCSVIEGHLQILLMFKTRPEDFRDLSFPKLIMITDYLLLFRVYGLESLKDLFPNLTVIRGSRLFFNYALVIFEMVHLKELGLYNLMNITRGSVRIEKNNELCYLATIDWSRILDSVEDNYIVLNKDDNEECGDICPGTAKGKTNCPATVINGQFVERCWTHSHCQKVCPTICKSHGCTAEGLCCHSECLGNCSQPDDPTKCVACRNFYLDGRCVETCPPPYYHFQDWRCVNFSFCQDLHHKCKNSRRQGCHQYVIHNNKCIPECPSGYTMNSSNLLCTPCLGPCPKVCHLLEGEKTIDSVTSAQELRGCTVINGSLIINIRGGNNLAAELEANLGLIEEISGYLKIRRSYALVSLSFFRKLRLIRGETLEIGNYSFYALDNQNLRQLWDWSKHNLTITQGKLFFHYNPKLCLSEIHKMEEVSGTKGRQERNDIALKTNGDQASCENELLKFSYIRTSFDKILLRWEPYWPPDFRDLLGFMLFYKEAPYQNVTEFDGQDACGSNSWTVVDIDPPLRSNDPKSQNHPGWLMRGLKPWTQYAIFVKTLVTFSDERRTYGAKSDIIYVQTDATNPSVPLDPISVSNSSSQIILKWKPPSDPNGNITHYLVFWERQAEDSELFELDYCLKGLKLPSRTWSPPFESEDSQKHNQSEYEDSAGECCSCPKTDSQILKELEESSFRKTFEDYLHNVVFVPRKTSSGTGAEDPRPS
# Test Details: insulin receptor kinase autophosphorylation assay (captured hIR, anti-phosphotyrosine ELISA)
# Format: biochemical
# Condition Label: read-out: EC50 in in vitro autophosphorylation assay
Measured Property: pEC50
Scale explanation: pEC50 corresponds to minus log10 of a concentration expressed in moles per litre.

Consider the molecule shown here: COc1ccccc1NC(=O)C(N=Nc1ccc(-c2nc3ccc(C)c(S(=O)(=O)[O-])c3s2)cc1S(=O)(=O)[O-])C(C)=O.[Na+].[Na+] (stereo not shown) [TER3938, Direct Yellow 27] What is its recorded pEC50? 5.10
